study-target: Grb2 SH2 (UniProt P62993)
Sequence (P62993 whole entry, looked up): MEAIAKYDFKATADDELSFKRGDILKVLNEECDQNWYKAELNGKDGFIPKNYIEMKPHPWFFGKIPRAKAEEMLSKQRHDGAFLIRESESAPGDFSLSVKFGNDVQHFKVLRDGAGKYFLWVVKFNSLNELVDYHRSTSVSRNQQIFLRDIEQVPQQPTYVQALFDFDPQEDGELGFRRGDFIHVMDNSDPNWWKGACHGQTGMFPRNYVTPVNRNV
assay-summary: SH2 binding enrichment of the phosphorylated peptide, bacterial display (enrichment ratio); higher = better substrate or ligand; peptides without Tyr show the background
Use T when the recorded SH2 binding enrichment is no lower than 0.9; use F when it is lower.

>>> df
                            chain  class
0      ISIFYYAKGQP [MPZ_Y82_H81Y]      F
1      FFCRWYRNRKS [EREG_Y144_YF]      F
2    KELAKYYKLHH [AK7_Y390_N389K]      T
3         PGPQSYPIVTG [PAX5_Y299]      T
4  SAPDSYIRIGN [SLC38A4_Y27_G29R]      F

From here, focus on the item given below.
Entry PDSVDYPKKGY [CTSK_Y121_R122P] : is its SH2 binding enrichment no less than 0.9?
F

###

Entries and their measured phosphorylation enrichment follow.
study-target: EPHB1 (UniProt P54762)
Sequence (P54762 whole entry, looked up): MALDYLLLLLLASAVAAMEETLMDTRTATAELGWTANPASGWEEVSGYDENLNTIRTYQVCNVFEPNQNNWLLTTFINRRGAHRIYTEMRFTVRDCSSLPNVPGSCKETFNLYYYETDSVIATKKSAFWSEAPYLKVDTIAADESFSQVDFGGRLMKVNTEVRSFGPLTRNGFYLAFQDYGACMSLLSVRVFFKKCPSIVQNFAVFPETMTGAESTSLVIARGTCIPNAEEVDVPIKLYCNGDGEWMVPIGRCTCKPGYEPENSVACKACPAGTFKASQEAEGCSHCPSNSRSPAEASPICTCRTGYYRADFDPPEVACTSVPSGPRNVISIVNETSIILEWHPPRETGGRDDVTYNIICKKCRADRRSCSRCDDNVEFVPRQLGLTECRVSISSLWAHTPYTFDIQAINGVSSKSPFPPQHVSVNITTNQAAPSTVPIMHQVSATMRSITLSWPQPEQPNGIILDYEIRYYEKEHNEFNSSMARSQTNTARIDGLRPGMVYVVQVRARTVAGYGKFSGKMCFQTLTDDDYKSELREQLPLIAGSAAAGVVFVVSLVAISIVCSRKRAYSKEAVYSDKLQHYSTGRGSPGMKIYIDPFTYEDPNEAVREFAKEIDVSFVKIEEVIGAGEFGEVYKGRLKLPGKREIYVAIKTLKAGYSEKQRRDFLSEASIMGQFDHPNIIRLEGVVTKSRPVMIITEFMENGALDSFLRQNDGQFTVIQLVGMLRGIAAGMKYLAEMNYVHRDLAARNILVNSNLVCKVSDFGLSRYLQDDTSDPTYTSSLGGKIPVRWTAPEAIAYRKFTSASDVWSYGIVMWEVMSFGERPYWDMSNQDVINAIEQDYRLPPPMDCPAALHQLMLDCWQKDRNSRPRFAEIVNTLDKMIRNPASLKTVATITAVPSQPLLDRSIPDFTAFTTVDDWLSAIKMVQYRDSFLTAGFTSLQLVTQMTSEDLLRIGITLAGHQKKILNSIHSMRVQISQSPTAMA
assay-summary: phosphorylation enrichment, bacterial display (enrichment ratio); higher = better substrate or ligand; peptides without Tyr show the background

In [3]: df
Out[3]:
                           chain                  value_type  readout_value
0  AGTIPYHAHLD [ASS1_Y291_L290P]  phosphorylation enrichment          0.395

Form: Entry = ATDLAYYLVCK [ASL_Y375_R379C] | System = EPHB1 (UniProt P54762) | phosphorylation enrichment = ____
1.08

###

Tested on: Fer (mouse)
assay-summary: phosphorylation enrichment, bacterial display (enrichment ratio); higher = better substrate or ligand; peptides without Tyr show the background
Use Condition met when the recorded phosphorylation enrichment is no lower than 0.6; use Condition not met when it is lower.

// known answers, use as guide
>>> df
                               chain  study_target              class
0           ECKASYPGKIT [PRSS3_Y232]   Fer (mouse)  Condition not met
1              IKRIAYEFVEM [ADA_Y84]   Fer (mouse)      Condition met
2          GGMTEYNLVVV [KRAS_Y4_K5N]   Fer (mouse)      Condition met
3  FDDIAYIQKTL [PIK3CA_Y1021_R1023Q]   Fer (mouse)  Condition not met
4     RLLRGYRQDAY [HLA-A_Y137_F133L]   Fer (mouse)      Condition met
5     YRAVKYLQMVG [AVPR2_Y117_C112Y]   Fer (mouse)  Condition not met
6          PESCLYKESWL [IQGAP2_Y630]   Fer (mouse)      Condition met
7       TDLAYYLVREG [ASL_Y376_K380E]   Fer (mouse)  Condition not met

Entry HSYNSYTYPRL [PAK5_Y316] : is its phosphorylation enrichment no less than 0.6?
Condition not met

Entry NRVEIYDKTVE [CYFIP1_Y108_E109D] : is its phosphorylation enrichment no less than 0.6?
Condition not met

Entry KSEMSYIDGEK [SORBS1_Y485] : is its phosphorylation enrichment no less than 0.6?
Condition not met

Entry ELTAKYLNYYR [P3H4_Y181_Q186R] : is its phosphorylation enrichment no less than 0.6?
Condition not met

Entry TEALFYTDDPA [ADPRS_Y75_T79P_YF] : is its phosphorylation enrichment no less than 0.6?
Condition met
